test system: 997537-175-T-J1-PDC complex spheroid viability; assay: Anticancer human tumor 997537-175-T-J1-PDC patient-derived colon adenocarcinoma cell line growth inhibition [GQUAD]; details: second compound 1 µM; first compound 1 µM; hits give low values;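 note: spheroids exposed to the agents for 7 days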
So basically: is viability, T/C under 80%? Then yes. Not under? Then no.

QUERY: Is it true that viability, T/C reported for COc1cc(C2c3cc4c(cc3C(OC3OC5COC(C)OC5C(O)C3O)C3COC(=O)C23)OCO4)cc(OC)c1O (stereo unspecified) + Cc1[nH]c2ccc(F)cc2c1-c1nc2c3cccnc3c3ncccc3c2[nH]1 is less than 80%?
RESULT: no

QUERY: viability, T/C under 80%? Item: COc1ncnc(C2CC2)c1-c1ncc2cnn(Cc3ccc(-c4nc(C(F)(F)F)cn4C(C)C)cc3)c2n1 + Cc1cnc(CNC(=O)c2c(=O)c3ccc(N4CCCN(C)CC4)nc3n3c2sc2ccccc23)cn1
RESULT: no

QUERY: Hello, I'm reviewing records and need to know if viability, T/C of O=c1[nH]cc(F)c(=O)[nH]1 + Cc1cnc(CNC(=O)c2c(=O)c3ccc(N4CCCN(C)CC4)nc3n3c2sc2ccccc23)cn1 is below 80%. Could you check?
RESULT: no

QUERY: Just wondering, is viability, T/C of CC1COCCN1c1cc(C2(S(C)(=N)=O)CC2)nc(-c2ccnc3[nH]ccc23)n1 (stereo unspecified) + Cc1[nH]c2ccc(F)cc2c1-c1nc2c3cccnc3c3ncccc3c2[nH]1 below 80%?
RESULT: no

QUERY: Decide: viability, T/C of COc1cccc2c1C(=O)c1c(O)c3c(c(O)c1C2=O)CC(O)(C(=O)CO)CC3OC1CC(N)C(O)C(C)O1 (stereo unspecified) + CN(C)c1ccc(Nc2c3ccc(NC(=O)CCN4CCCC4)cc3nc3cc(NC(=O)CCN4CCCC4)ccc23)cc1 strictly below 80%?
RESULT: no

QUERY: Is viability, T/C of CC(C)(O)C1CCC(Nc2ccc3ncc(-c4cccc(C(F)(F)F)c4)n3n2)CC1 (stereo unspecified) + Cc1cnc(CNC(=O)c2c(=O)c3ccc(N4CCCN(C)CC4)nc3n3c2sc2ccccc23)cn1 strictly below 80%?
RESULT: yes

QUERY: Bench note: check whether CC1COCCN1c1cc(-c2ccnn2C)c2ccnc(-c3ccn[nH]3)c2n1 (stereo unspecified) + CN(C)c1ccc(Nc2c3ccc(NC(=O)CCN4CCCC4)cc3nc3cc(NC(=O)CCN4CCCC4)ccc23)cc1 shows viability, T/C below 80%
RESULT: yes

QUERY: Is it true that viability, T/C reported for CC1COCCN1c1cc(-c2ccnn2C)c2ccnc(-c3ccn[nH]3)c2n1 (stereo unspecified) + Cc1cnc(CNC(=O)c2c(=O)c3ccc(N4CCCN(C)CC4)nc3n3c2sc2ccccc23)cn1 is less than 80%?
RESULT: yes

QUERY: Field: below-cutoff. Rule: recorded viability, T/C strictly less than 80%. Subject: CC(=O)O[C@H]1C(=O)[C@@]2(C)[C@H]([C@H](OC(=O)c3ccccc3)[C@]3(O)C[C@H](OC(=O)[C@H](O)[C@@H](NC(=O)c4ccccc4)c4ccccc4)C(C)=C1C3(C)C)[C@]1(OC(C)=O)CO[C@@H]1C[C@@H]2O + Cc1[nH]c2ccc(F)cc2c1-c1nc2c3cccnc3c3ncccc3c2[nH]1
RESULT: no

QUERY: Just wondering, is viability, T/C of Nc1ccn(C2OC(CO)C(O)C2(F)F)c(=O)n1 (stereo unspecified) + Cc1[nH]c2ccc(F)cc2c1-c1nc2c3cccnc3c3ncccc3c2[nH]1 below 80%?
RESULT: no

QUERY: In the record for COc1ccc([C@@H](O)c2cc(-c3ncnc4cc(N5CCOCC5)ccc34)c(F)cc2Cl)nn1 + CN(C)c1ccc(Nc2c3ccc(NC(=O)CCN4CCCC4)cc3nc3cc(NC(=O)CCN4CCCC4)ccc23)cc1 , is viability, T/C less than 80%?
RESULT: yes

QUERY: Hi there! Is viability, T/C for O=C(c1cc(Cc2n[nH]c(=O)c3ccccc23)ccc1F)N1CCN(C(=O)C2CC2)CC1 + Cc1[nH]c2ccc(F)cc2c1-c1nc2c3cccnc3c3ncccc3c2[nH]1 below 80%, do you know?
RESULT: no

QUERY: Confirm or reject: viability, T/C of O=C(NO)c1cnc(N2CCN(S(=O)(=O)c3ccc4ccccc4c3)CC2)nc1 + Cc1[nH]c2ccc(F)cc2c1-c1nc2c3cccnc3c3ncccc3c2[nH]1 lies strictly below 80%
RESULT: yes
